# target-entity: T1, human GRO/MGSA (human, UniProt P09341 35-107)
# T1 construct: also called hGRO/MGSA; GRO-alpha
# T1 sequence (looked up): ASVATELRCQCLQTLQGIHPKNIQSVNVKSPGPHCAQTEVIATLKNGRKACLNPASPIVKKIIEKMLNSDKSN
# assay-comment: ELISA, coated antigen
Recorded measurements of ELISA OD, one per entry
Unit OD450 implied. Number only.

>  <binder>
anti-MCP-1 mAb 5.3.1 (antibody, V domains shown) VH: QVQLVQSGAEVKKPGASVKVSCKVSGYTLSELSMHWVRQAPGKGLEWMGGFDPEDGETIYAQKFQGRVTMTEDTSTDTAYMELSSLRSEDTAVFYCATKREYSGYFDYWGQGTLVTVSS VL: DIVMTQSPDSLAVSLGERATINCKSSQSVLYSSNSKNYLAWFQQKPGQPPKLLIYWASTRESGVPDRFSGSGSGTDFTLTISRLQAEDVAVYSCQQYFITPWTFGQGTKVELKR

>  <ELISA OD [OD450]>
0.045

$$$$
>  <binder>
anti-MCP-1 mAb 3.10.1 (antibody, V domains shown) VH: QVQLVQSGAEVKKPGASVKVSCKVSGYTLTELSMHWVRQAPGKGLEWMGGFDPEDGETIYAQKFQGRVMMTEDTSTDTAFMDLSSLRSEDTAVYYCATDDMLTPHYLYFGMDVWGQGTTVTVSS VL: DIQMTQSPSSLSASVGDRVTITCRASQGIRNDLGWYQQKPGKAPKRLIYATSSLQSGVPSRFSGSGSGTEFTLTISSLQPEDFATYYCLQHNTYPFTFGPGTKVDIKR

>  <ELISA OD [OD450]>
0.042

$$$$

# next binder below
Sure, the documented ELISA OD for anti-MCP-1 mAb 1.13.1 (antibody, V domains shown) VH: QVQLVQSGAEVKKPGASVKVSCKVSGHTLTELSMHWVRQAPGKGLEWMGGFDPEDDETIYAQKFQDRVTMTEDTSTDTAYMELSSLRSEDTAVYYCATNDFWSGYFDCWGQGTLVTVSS VL: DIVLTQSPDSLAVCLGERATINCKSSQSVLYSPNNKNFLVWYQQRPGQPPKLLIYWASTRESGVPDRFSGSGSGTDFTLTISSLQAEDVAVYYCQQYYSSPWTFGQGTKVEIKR is 0.046
